Where do the numbers come from? From PubChem BioAssay (NCI).

# test-details: NCI Yeast Anticancer Drug Screen. Data for the rad52 strain (AID 147);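 note: 0% = growth of vehicle-treated control cultures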
# experimental-setup: S. cerevisiae rad52 mutant growth inhibition; at 1.2 µM; hits give high values
# Method: Growth inhibition of yeast strains with defined genetic alterations is measured as a screen for potential anti-cancer activity. Selected strains with alterations in DNA damage repair or cell cycle control were exposed to compounds and growth inhibition was measured relative to vehicle treated controls. The strain used in this assay is rad52
The panel holds about 79,000 compounds, 15% with a hit somewhere; the sample as a whole holds those more often.
Item-by-item account of growth inhibition
Numbers only; they are read as %.

The examples below pair each entry with its known result.
compound	result-unit	assay-value
O=C(O)Cc1cc(F)ccc1C(=O)O	%	3
O=c1nc2n(Cc3ccccc3)c3ccccc3nc-2c(=O)[nH]1	%	0
CC[N+]1(C)CCC(O)(c2ccc(OC)cc2)C(C(=O)c2ccc(OC)cc2)C1 (stereo not given)	%	-10
Cc1cccc[n+]1C1CCc2c(ccc3ccccc23)C1=O (stereo not given)	%	5
CC1=C(C(=O)NCc2ccccc2)C(c2ccccc2)C(C(=O)NCc2ccccc2)=C(C)N1	%	-3
Cc1cc(C)nc(NS(=O)(=O)c2ccc(Nc3c4ccccc4nc4c(C(=O)NCCO)cccc34)cc2)n1	%	-2
C[C@]12CC[C@H](O)CC1=CC[C@@H]1C2CC[C@]2(C)C(=O)NC(=O)CC12 (stereo not given in full)	%	-27
CN(C)[C@@H]1C(=O)C(C(N)=O)=C(O)[C@@]2(O)C(=O)C3=C(O)c4c(O)cccc4C[C@H]3C[C@@H]12	%	-5

Exam item: Requested field: growth inhibition. Item: "O=[n+]1c2ccccc2n([O-])c2cc(Br)ccc21"
Marked response: 94

Exam item: Then "O=P(NC1CCCCC1)(OCc1ccccc1)OCc1ccccc1" ?
Marked response: -1

====

Item-by-item account of growth inhibition
# test-details: NCI Yeast Anticancer Drug Screen. Data for the mgt1 strain (AID 153)
# experimental-setup: S. cerevisiae mgt1 mutant growth inhibition; at 3.7 µM; hits give high values
The panel holds about 79,000 compounds, 15% with a hit somewhere; the sample as a whole holds those more often.
Numbers only; they are read as %.

The examples below pair each entry with its known result.
compound	assay-value
COc1cc(O)c(O)c(C(C)(C)C)c1	-2
O=C(Nc1ccc(Cl)cc1)Nc1nnc2nc(C(C(=O)c3cccc([N+](=O)[O-])c3Cl)c3nc4nnc(NC(=O)Nc5ccc(Cl)cc5)n4[nH]c3=O)c(=O)[nH]n12	1
Cc1cc(O)c(C(C)C)cc1C1(c2cc(C(C)C)c(O)cc2C)OC(=O)c2ccccc21	-1
CNC(=O)OCc1c(COC(=O)NC)c2n(c1C)-c1ccc(OC)cc1CCC2	-35
Cc1ccc(CC2(OCCN(C)C)CCC(C(C)(C)C)CC2)cc1 (centres undefined)	12

Exam item: Requested field: growth inhibition. Item: "Cc1csc(=S)n1OC(=O)NC1CCCCC1"
Marked response: 99

Exam item: Then "O=C1C(=O)c2ccccc2C(O)=C1C(C1=C(O)c2ccccc2C(=O)C1=O)c1ccc(Cl)cc1" ?
Marked response: 9

Exam item: Then "CC1=C(C(=O)NCc2ccccc2)C(c2ccccc2)C(C(=O)NCc2ccccc2)=C(C)N1" ?
Marked response: -2

Exam item: Then COC(=O)C1=C(C(=O)OC)C(C(=O)OC)C(C(=O)OC)C(C(=O)OC)(C(=O)OC)C(C(=O)OC)=C1C(=O)OC (centres undefined) ?
Marked response: -19
